assay: Toxicity liver stage against HepG2, at 10uM; format: cell-based; parameters: test concentration 10 uM, cell line HepG2-A16-CD81EGFP; conditions: human, HepG2-A16-CD81EGFP cells; read-out: INHIBITION
MEASURED ENDPOINT: cytotoxicity at 10 µM (%)
Report the value in % with no unit label.

Answer with the recorded cytotoxicity at 10 µM of `CSCC[C@@H](CO)NC(=O)c1sc(-c2ccccc2Cl)nc1C` only.
14.3

Give the reported cytotoxicity at 10 µM for this compound. `CC(C)Cn1cc(NC(=O)N2CCCC2)cn1`
-5.28

Note cytotoxicity at 10 µM for the compound shown: c1cnc(NC2COC3(CCN(Cc4cccs4)CC3)C2)nc1 (centres undefined)
0.603

Provide only the value of recorded cytotoxicity at 10 µM for `Cc1nnc2n1CCN(Cc1csc(Cc3ccccc3)n1)C2`
-9.41

Tell us which cytotoxicity at 10 µM value is on record for `O=C(c1ccccc1)C1CCN(c2cncc(-n3cccn3)n2)CC1`
0.935

State, in one line, measured cytotoxicity at 10 µM of CC(=O)c1ccc(OCC(C)O)cc1O (centres undefined)
-8.02

Please supply the value of reported cytotoxicity at 10 µM for the item CN1CCCCC1CCC(=O)NCCCn1nccc1C1CC1 (centres undefined)
-22.9

Name the recorded cytotoxicity at 10 µM of the item OC1(CNCCN2CCCc3ccccc32)CCNC1 (centres undefined) in your answer.
7.03

Supply cytotoxicity at 10 µM value. Item: `Cc1cc(-c2cnc(N3CCNC(=O)C3)nc2-c2ccc(C)o2)on1`
-5.77

Read the entry Cc1nc(C)n(CC2CCCN(Cc3nnc(C(C)(C)C)o3)C2)n1 (centres undefined) and write its reported cytotoxicity at 10 µM.
-11

Annotate the compound CSc1nc2ccsc2c(=O)n1CC(=O)N1CCCCC1C (centres undefined) with its measured cytotoxicity at 10 µM.
7.08

Give me measured cytotoxicity at 10 µM, please, for this compound: `CCOc1cc(CNC(=O)c2cnn(CC)c2C(F)(F)F)ccn1`
16.8

Look up and state reported cytotoxicity at 10 µM for NC(=O)C1CCN(C(=O)C2SCCc3sccc32)CC1 (centres undefined)
-6.02

// Input: `Cc1ccnn1-c1ccc(C(=O)N2CCN(c3cnccn3)CC2)cc1` . Output its cytotoxicity at 10 µM only.
-2.31

Report measured cytotoxicity at 10 µM; entry is `O=C(C1=CCCC1)N1C[C@@H]2COC[C@]2(COCC2CC2)C1`
-96.2

Item `CCn1c(Nc2ccccc2OC)nc2c(C)nn(C)c2c1=O` : provide cytotoxicity at 10 µM
15.8

State its cytotoxicity at 10 µM for this compound: `O=C(Cc1cccc(F)c1)NCCNS(=O)(=O)C1CCCC1`
3.61

Read off the recorded cytotoxicity at 10 µM for `N[C@@H]1c2ccccc2C2(CCN(C(=O)c3ccc(CO)o3)CC2)[C@H]1O`
3.92

Quote cytotoxicity at 10 µM reported for `CCCNC(=O)N1CCc2ccc(S(=O)(=O)N3CCN(C)CC3)cc2C1` please.
-10

Report cytotoxicity at 10 µM for `O=C(c1ccc[nH]1)N1CCc2c(cccc2S(=O)(=O)N2CCOCC2)C1`
-15

// Input: `CC(C)Nc1ncnc2c1CCN(C(=O)Cc1ccccn1)CC2` . Output its cytotoxicity at 10 µM only.
3.3

Retrieve cytotoxicity at 10 µM measured for `Cn1ccc(CN2CCC(CC(=O)N3CCCC3)CC2)cc1=O` and print it.
-12.6

Could you please provide reported cytotoxicity at 10 µM for CCc1nc(C)cc(NC(C)C(=O)Nc2cc(F)ccc2C)n1 (centres undefined) ? Thanks!
-4.44

Write down cytotoxicity at 10 µM measured for item `CC(C)C(=O)Nc1ccc(Oc2ccc3c(c2)OCO3)nc1`
-12.4

----------
For each of the molecules below, state its cytotoxicity at 10 µM.
assay: Toxicity liver stage against HepG2, at 10uM; format: cell-based; set-up: test concentration 10 uM, cell line HepG2-A16-CD81EGFP; conditions: human, HepG2-A16-CD81EGFP cells; read-out: INHIBITION
The reply should be a number in %, with the unit left off.

Quick one: give measured cytotoxicity at 10 µM for Cn1cc(C2CCCN2C(=O)COC2CCCCC2)cn1 (stereo not drawn)
-8.79

# return recorded cytotoxicity at 10 µM for entry `O=C(Nc1ccccc1)N1C[C@@H]2C[C@H](C(=O)N3CCOCC3)[C@H](C1)O2`
7.53

Give the measured cytotoxicity at 10 µM for O=S(=O)(N1CCOCC1)N1CCCCC1CCn1cccn1 (stereo not drawn)
-0.302

Provide measured cytotoxicity at 10 µM value, entry: `CC(C)Oc1nnc(SCC(=O)NCC(=O)N2CCCC2)s1`
1.38

Respond only with cytotoxicity at 10 µM recorded for `COC[C@]1(O)CCN(Cc2ccc(N(C)C)nc2)CC1(C)C`
7.63

Answer with the recorded cytotoxicity at 10 µM for the molecule listed here: O=C(NCCc1coc(-c2ccc(F)cc2)n1)NCC1CCOC1 (stereo not drawn)
-1.94

Output measured cytotoxicity at 10 µM for this item: `COCCN1C[C@@H]2CN(c3cnccn3)C[C@@H]2C1=O`
-104

Item Cc1cnc(NC(=O)C(C)Oc2ccc3c(c2)OCO3)s1 (stereo not drawn) : provide cytotoxicity at 10 µM
-5.22

Name the recorded cytotoxicity at 10 µM of the molecule listed here: `Cn1nccc1-c1ncc2c(c1C(=O)O)CCN(Cc1ccccc1)C2`
9.97

Specify reported cytotoxicity at 10 µM for the molecule shown: `CC(C)CS(=O)(=O)CCNC(=O)Nc1cccc2ncccc12`
-11

Recall and state the measured cytotoxicity at 10 µM for `COc1cc2cc3c(nc2cc1OC)OCCN(CC1CC1)C3` .
5.37

Supply measured cytotoxicity at 10 µM of `O=C1CO[C@@H]2CN(S(=O)(=O)c3ccccc3F)C[C@H]2N1` in your reply.
0.0416

Give cytotoxicity at 10 µM for the following molecule: O=C1NCCN(Cc2cccnc2)C1CC(=O)N1CCc2n[nH]cc2C1 (stereo not drawn)
-4.05

Note down cytotoxicity at 10 µM recorded for `COCCN(Cc1ccc(F)cc1Cl)C(=O)c1cc[n+]([O-])cc1`
4.75

Let me know recorded cytotoxicity at 10 µM for Cc1nn2cccnc2c1C(=O)N1CCCC(n2ccnc2C)C1 (stereo not drawn) , thanks.
-9.53

Identify cytotoxicity at 10 µM associated with the molecule `Cc1occc1C(=O)N1CCc2c(CNc3ncccn3)cncc2C1`
-83.1

// fetch cytotoxicity at 10 µM given entry `Cc1ccc(F)cc1C(=O)N1C[C@@H](CN2CCOCC2)[C@@H](CO)C1`
-6.2

Please give measured cytotoxicity at 10 µM of the following entry: CC1CCc2sc(C(=O)Nc3cnn(C)c3)cc2C1 (stereo not drawn)
9.48

Return cytotoxicity at 10 µM (reported value) for this molecule: `CN(CCn1cccn1)S(=O)(=O)c1cccc(Cl)c1C#N`
3.45

State its cytotoxicity at 10 µM for this molecule: COCCN1CCC(c2nc3c([nH]2)CC(C)(C)CNC3=O)C1 (stereo not drawn)
-2.18

Provide cytotoxicity at 10 µM value for the following molecule: `Cc1ccc(C(=O)N(C)CC(=O)N2CCCC2)c(C)c1`
-0.705

For `Cc1noc(C)c1CN1C[C@H](OCC(=O)N(C)C)[C@H]2COC[C@H]21` , write its cytotoxicity at 10 µM.
7.61

Return reported cytotoxicity at 10 µM. Input molecule: `O=C(c1cncc(N2CC[C@@]3(O)CCNC[C@H]3C2)n1)N1CCCC1`
-8.19

----------
test: Toxicity liver stage against HepG2, at 10uM; assay type: cell-based; parameters: test concentration 10 uM, cell line HepG2-A16-CD81EGFP; settings: human, HepG2-A16-CD81EGFP cells; read-out: INHIBITION
MEASURED ENDPOINT: cytotoxicity at 10 µM (%)
// return numeric value only (unit: %, not printed)

Please give measured cytotoxicity at 10 µM of the following entry: O=C(CCSC1CCc2ccccc2NC1=O)NCCCO (stereo unspecified)
-5.65

Look up and state reported cytotoxicity at 10 µM for `CCN(C(=O)c1cccc2c1OCO2)c1ccc(Br)cn1`
3.44

Supply recorded cytotoxicity at 10 µM for `Cc1cc(CN2C[C@H]3CCC[C@@]3(COCC3CCOCC3)C2)no1` here.
0.073

Tell us which cytotoxicity at 10 µM value is on record for `COCc1ccc(CNc2cnn(C(C)(C)C)c(=O)c2Cl)cc1`
60.9

Please report the measured cytotoxicity at 10 µM for Cc1cccc(CN2CCC3(CCCN(C(=O)c4ccoc4)C3)C2=O)n1 (stereo unspecified)
3.19

Check the records and state cytotoxicity at 10 µM for Cc1nc(CNC2CC(=O)N(CCc3cccc(Cl)c3)C2)c[nH]1 (stereo unspecified)
-133

Entry CC1CN(C)CCN1C(=O)c1cnn(-c2ccc(Cl)cc2)c1 (stereo unspecified) needs its cytotoxicity at 10 µM filled in; supply it.
-22.7

For the compound Cc1nc(N2CCC3(CCCN(C(C)C)C3=O)C2)c2sccc2n1 (stereo unspecified) , give its reported cytotoxicity at 10 µM.
18.6

Consider the compound Cc1nc(C(C)C)ncc1C(=O)N1CCC(c2ccccc2C(=O)O)C1 (stereo unspecified) and give its recorded cytotoxicity at 10 µM.
1.93

Supply measured cytotoxicity at 10 µM of `Cc1ncsc1C(=O)N1CCC(Nc2cccnn2)CC1` in your reply.
-1.89

Name the recorded cytotoxicity at 10 µM of the item `CN(C)C(=O)CN1C[C@@H]2OCCN(c3ncc(F)cn3)[C@@H]2C1` in your answer.
-0.756
